- Test system: EKVX
- test details: NCI tumour cell line growth inhibition, 48 h
Calls of active or inactive are those of the source. Cut-off read from the data, not from the text of the source: active = GI50 up to about 1.1 µM and inactive = higher.
Labels: active, inactive

| compound | measurement target | label |
| --- | --- | --- |
| CC[C@H](C)[C@H]1NC(=O)[C@@H](NC(=O)[C@@H](CC(C)C)N(C)CC2CCCN2C(=O)C(C)=O)[C@@H](C)OC(=O)[C@H](Cc2ccc(OC)cc2)N(C)C(=O)C2CCCN2C(=O)[C@H](CC(C)C)NC(=O)[C@@H](C)C(=O)[C@H](C(C)C)OC(=O)C[C@@H]1O (some centres undefined) | EKVX | active |
| O=c1c2ccccc2nc2n1NC(c1c(Cl)cccc1Cl)N2c1cccc(Cl)c1 (centres undefined) | EKVX | inactive |
| CC1=C(C(N)=O)C(c2ccncc2)C(C#N)C(=O)N1 (centres undefined) | EKVX | inactive |
| CCOC(=O)c1c(C)n(CCN2CCN(C)CC2)c2ccc(OC)cc12 | EKVX | inactive |
| O=C(O)c1cc(O)nc(SCc2ccccc2)n1 | EKVX | inactive |
| Oc1ccccc1-c1cnnc(-c2ccccc2O)c1 | EKVX | inactive |
| CN1C(=O)C2CCC(=O)N2c2cccnc21 (centres undefined) | EKVX | inactive |
| CCCCCCCCCCCCCC(=O)OCC1OC(n2cc(F)c(=O)[nH]c2=O)C(N)C(OC(=O)CCCCCCCCCCCCC)C1O (centres undefined) | EKVX | inactive |
| O=C(/C=C1\C[C@H]2C=Nc3ccccc3C(=O)N2C1)NCCCNC(=O)/C=C1\C[C@H]2C=Nc3ccccc3C(=O)N2C1 | EKVX | inactive |
